protocolDescription: Cellular uptake in human T lymphocytes assessed as compound retention at 3 to 20 uM incubated for 3 hrs followed by drug washout measured after 3 hrs by LC-MS/MS analysis relative to initial drug accumulation
Format: ADME, cell-based
settings: t-cell
Mark each entry satisfied if its Drug uptake sits below 20%, and not satisfied for all others.

querySmiles: CC[C@H]1OC(=O)[C@H](C)[C@@H](O[C@H]2C[C@@](C)(OC)[C@@H](OC(=O)CN(CC)CC)[C@H](C)O2)[C@H](C)[C@@H](O[C@@H]2O[C@H](C)C[C@H](N(C)C)[C@H]2O)[C@](C)(OC)C[C@@H](C)C(=O)N[C@H](C)[C@@H](O)[C@]1(C)O
category: satisfied
//
querySmiles: CC[C@H]1OC(=O)[C@H](C)[C@@H](O[C@H]2C[C@@](C)(OC)[C@@H](O)[C@H](C)O2)[C@H](C)[C@@H](O[C@@H]2O[C@H](C)C[C@H](N(C)C)[C@H]2O)[C@](C)(O)C[C@@H](C)CN(C)[C@H](C)[C@@H](O)[C@]1(C)O
category: not satisfied
//
querySmiles: CCCCCCCC(=O)NCCCN1C[C@H](C)C[C@@](C)(O)[C@H](O[C@@H]2O[C@H](C)C[C@H](N(C)C)[C@H]2O)[C@@H](C)[C@H](O[C@H]2C[C@@](C)(OC)[C@@H](O)[C@H](C)O2)[C@@H](C)C(=O)O[C@H](CC)[C@@](C)(O)[C@H](O)[C@H]1C
category: not satisfied
//
querySmiles: CCCCCCCC(=O)NCCCN(C)[C@H]1C[C@@H](C)O[C@@H](O[C@@H]2[C@@H](C)[C@H](O[C@H]3C[C@@](C)(OC)[C@@H](O)[C@H](C)O3)[C@@H](C)C(=O)O[C@H](CC)[C@@](C)(O)[C@H](O)[C@@H](C)N(C)C[C@H](C)C[C@@]2(C)O)[C@@H]1O
category: satisfied
//
querySmiles: CC[C@H]1OC(=O)[C@H](C)[C@@H](O[C@H]2C[C@@](C)(OC)[C@@H](O)[C@H](C)O2)[C@H](C)[C@@H](O[C@@H]2O[C@H](C)C[C@H](N(C)C)[C@H]2O)[C@](C)(OC)C[C@@H](C)C(=O)[C@H](C)[C@@H](O)[C@]1(C)O
category: satisfied
//
querySmiles: CC[C@H]1OC(=O)[C@H](C)[C@@H](O)[C@H](C)[C@@H](O)[C@](C)(O)C[C@@H](C)CN(C)[C@H](C)[C@@H](O)[C@]1(C)O
category: satisfied
